biological target: IRAK4 (Homo sapiens (Human), UniProt Q9NWZ3); experiment: hPBMC IRAK4 degradation flow assay; format: cell-based; conditions: hPBMC monocyte, 20 hrs; read-out: IRAK4 degradation in hPBMC monocyte: DC50
Sequence (Q9NWZ3 whole entry): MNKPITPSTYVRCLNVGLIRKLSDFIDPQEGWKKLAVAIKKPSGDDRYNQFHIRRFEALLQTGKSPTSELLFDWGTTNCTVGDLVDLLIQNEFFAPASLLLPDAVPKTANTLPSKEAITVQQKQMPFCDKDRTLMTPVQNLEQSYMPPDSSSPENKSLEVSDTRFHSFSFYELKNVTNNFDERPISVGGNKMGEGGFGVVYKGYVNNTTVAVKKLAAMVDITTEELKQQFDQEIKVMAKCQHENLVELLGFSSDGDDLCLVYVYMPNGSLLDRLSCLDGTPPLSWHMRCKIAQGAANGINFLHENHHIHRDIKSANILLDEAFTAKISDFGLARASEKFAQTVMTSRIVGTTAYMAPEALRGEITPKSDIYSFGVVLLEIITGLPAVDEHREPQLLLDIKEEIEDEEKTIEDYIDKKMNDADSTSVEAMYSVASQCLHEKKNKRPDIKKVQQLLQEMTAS
measured_quantity: DC50

Worked examples follow.
[
  {
    "molecule": "Cn1c(=O)n(C2CCC(=O)NC2=O)c2cccc(CCCOC3CCN(C[C@H]4CC[C@H](n5ncc(NC(=O)c6cnn7ccc(N8CCOCC8)nc67)c5C(F)F)CC4)CC3)c21 (stereo partly shown) [I-468]",
    "DC50": "100 to 1000 nM"
  },
  {
    "molecule": "Cn1c(=O)n(C2CCC(=O)NC2=O)c2cccc(CCC(=O)N3CCC4(CCN(C[C@H]5CC[C@H](n6cc(NC(=O)c7cnn8ccc(N9C[C@H]%10C[C@@H]9CO%10)nc78)c(C(F)F)n6)CC5)CC4)CC3)c21 (stereo partly shown) [I-467]",
    "DC50": "< 10 nM"
  },
  {
    "molecule": "Cn1c(=O)n(C2CCC(=O)NC2=O)c2cccc(CCCOC3CCN(C[C@H]4CC[C@H](n5cc(NC(=O)c6cnn7ccc(N8CCOC(C)(C)C8)nc67)c(C(F)F)n5)CC4)CC3)c21 (stereo partly shown) [I-539]",
    "DC50": "< 10 nM"
  },
  {
    "molecule": "Cn1c(=O)n(C2CCC(=O)NC2=O)c2cccc(CC[C@H]3CN(C[C@H]4CC[C@H](n5cc(NC(=O)c6cnn7ccc(N8CCCOCC8)nc67)c(C(F)F)n5)CC4)CCO3)c21 (stereo partly shown) [I-516]",
    "DC50": "< 10 nM"
  }
]

Please look at the following molecule next.
In one line, give reported DC50 of the entry C[C@@H]1CN(c2ccn3ncc(C(=O)NC4=NC([C@H]5CC[C@H](CN6CCC(CCCc7cccc8c7n(C)c(=O)n8C7CCC(=O)NC7=O)CC6)CC5)N=C4C(F)F)c3n2)C[C@@H](C)O1 (stereo partly shown) [I-537] . < 10 nM
